molecular target: SIK3 (Homo sapiens); construct: purchased SignalChem S12-11G-100; assay: ADP-Glo kinase assay, SIK3; format: biochemical
Sequence (Q9Y2K2 59-365 limits assumed): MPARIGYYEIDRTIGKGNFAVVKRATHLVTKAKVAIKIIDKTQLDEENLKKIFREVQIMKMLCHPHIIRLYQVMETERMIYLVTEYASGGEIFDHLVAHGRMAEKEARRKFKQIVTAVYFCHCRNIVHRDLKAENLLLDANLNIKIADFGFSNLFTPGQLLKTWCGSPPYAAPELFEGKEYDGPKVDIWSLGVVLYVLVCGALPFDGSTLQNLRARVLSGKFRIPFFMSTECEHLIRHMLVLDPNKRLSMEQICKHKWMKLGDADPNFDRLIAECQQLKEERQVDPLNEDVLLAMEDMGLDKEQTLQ
Listed here: items and their measured IC50.

Recorded IC50, per entry:
# compound, val
records = [
    ("COc1cc(-c2cnc3cc(C(C)N(C)CCO)ccn23)cc(OC(F)F)c1C(=O)NC1CC1 (stereo not drawn)", "10 to 100 nM"),
    ("COc1cc(-c2cnc3cc(C(C)(C)C#N)ccn23)cc(OC(F)F)c1C(=O)NC1CC1", "0.01 to 10 nM"),
    ("CCCCOC(=O)NC(C)(C)c1ccc2c(-c3cc(OC)c(C(=O)N[C@@H]4C[C@@H]4F)c(OC(F)F)c3)cnn2c1", "10 to 100 nM"),
]

# input Data request, read-out IC50, for COc1cc(-c2cnn3cc(C(C)(C)CN4CCOCC4)ccc23)cc(OC(F)F)c1C(=O)N[C@@H]1C[C@@H]1F
# output 0.01 to 10 nM

# input Data request, read-out IC50, for COc1cc(-c2cnc3cc(C(C)(C)C#N)ccn23)cc(OC(F)F)c1C(=O)N1CC(O)(C(F)(F)F)C1
# output 0.01 to 10 nM
